target: Metabotropic glutamate receptor 4 (Homo sapiens, UniProt Q14833); assay: Ca2+ Mobilization In Vitro Assay: A monoclonal HEK-293 cell line stably transfected with a cDNA encoding for the human mGlu4 receptor was generated; for the work with mGlu4 Positive Allosteric Modulators (PAMs), a cell line with low receptor expression levels and low constitutive receptor activity was selected to allow the differentiation of agonistic versus PAM activity. Cells were cultured according to standard protocols (Freshney, 2000) in Dulbecco's Modified Eagle Medium with high glucose supplemented with 1 mM glutamine, 10% (vol/vol) heat-inactivated bovine calf serum, Penicillin/Streptomycin, 50 μg/ml hygromycin and 15 μg/ml blasticidin (all cell culture reagents and antibiotics from Invitrogen, Basel, Switzerland).About 24 hrs before an experiment, 5×10^4 cells/well were seeded in poly-D-lysine coated, black/clear-bottomed 96-well plates. The cells were loaded with 2.5 μM Fluo-4AM in loading buffer (1×HBSS, 20 mM HEPES) for 1 hr at 37° C. and washed five times with loading buffer. The cells were transferred into a Functional Drug Screening System 7000 (Hamamatsu, Paris, France), and 11 half logarithmic serial dilutions of test compound at 37° C. were added and the cells were incubated for 10-30 min. with on-line recording of fluorescence. Following this pre-incubation step, the agonist (2S)-2-amino-4-phosphonobutanoic acid (L-AP4) was added to the cells at a concentration corresponding to EC20 with on-line recording of fluorescence; in order to account for day-to-day variations in the responsiveness of cells, the EC20 of L-AP4 was determined immediately ahead of each experiment by recording of a full dose-response curve of L-AP4.
Sequence (Q14833 whole entry): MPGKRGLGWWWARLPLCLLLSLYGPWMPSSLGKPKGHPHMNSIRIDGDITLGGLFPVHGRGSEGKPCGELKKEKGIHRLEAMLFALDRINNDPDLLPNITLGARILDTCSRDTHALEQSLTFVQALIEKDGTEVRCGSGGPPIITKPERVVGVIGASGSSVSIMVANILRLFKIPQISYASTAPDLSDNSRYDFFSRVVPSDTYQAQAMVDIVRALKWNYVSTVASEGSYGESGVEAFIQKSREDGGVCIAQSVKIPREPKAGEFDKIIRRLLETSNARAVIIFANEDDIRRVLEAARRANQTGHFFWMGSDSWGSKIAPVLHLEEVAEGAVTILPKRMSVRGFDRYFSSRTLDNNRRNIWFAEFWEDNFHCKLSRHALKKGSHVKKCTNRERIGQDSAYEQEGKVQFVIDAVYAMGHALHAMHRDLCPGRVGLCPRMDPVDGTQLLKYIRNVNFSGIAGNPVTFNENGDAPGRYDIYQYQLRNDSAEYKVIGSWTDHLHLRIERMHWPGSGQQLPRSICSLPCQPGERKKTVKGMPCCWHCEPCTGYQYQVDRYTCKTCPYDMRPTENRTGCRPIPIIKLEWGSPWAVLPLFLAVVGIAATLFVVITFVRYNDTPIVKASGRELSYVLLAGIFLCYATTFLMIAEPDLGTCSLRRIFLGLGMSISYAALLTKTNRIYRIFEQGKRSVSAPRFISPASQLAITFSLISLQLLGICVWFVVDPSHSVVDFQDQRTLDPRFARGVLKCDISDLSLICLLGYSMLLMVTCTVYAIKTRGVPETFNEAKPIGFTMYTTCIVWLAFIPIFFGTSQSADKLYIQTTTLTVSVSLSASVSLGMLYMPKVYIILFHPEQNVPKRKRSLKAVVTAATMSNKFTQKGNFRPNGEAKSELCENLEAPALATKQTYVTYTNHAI
EXPERIMENTAL_READOUT: pEC50
Please express pEC50 as -log10 of the molar concentration.

Query :: Name the recorded pEC50 for CC(C)(C)Oc1ncc(N2CCN3C(=O)N(c4c(F)cc(C#Cc5ccccc5)cc4F)C(=O)C[C@@]3(C)C2=O)cn1 .
Result :: 6.80
